assay: In vivo pharmacokinetic study in female Balb/c mice; conditions: female, Balb/c, mouse, whole blood, iv, 1 mg/kg, IV 1 mg/kg, individual animals
property: AUC(0-inf) (nM·h)
Please reply with the bare figure in nM·h and do not write the unit itself.

// query Please list AUC(0-inf) recorded for the molecule "Cn1c(=O)cc(NC(C)(C)c2ncc(C3CC3)cn2)c2cc(Nc3ccnc(Cl)c3C#N)ccc21"
// result 1380

----------
assay: HPLC solubility assay; assay type: physicochemical; settings: PBS buffer, PBS pH 7.4, 1% DMSO, room temperature
property: solubility at 2 h (µM)
Please reply with the bare figure in µM and do not write the unit itself.

Recorded solubility at 2 h, per entry:
molecule: Cn1c(=O)ccc2cc(Nc3ccnc(Cl)c3C#N)ccc21 [Compound 2]
solubility at 2 h, µM: 12

molecule: Cn1c(=O)n(C)c2cc(Nc3ccnc(Cl)c3C#N)ccc21 [Compound 1]
solubility at 2 h, µM: 16

molecule: CNC(=O)C(C)Nc1cc(=O)[nH]c2ccc(Nc3ccnc(Cl)c3C#N)cc12 (centres unmarked) [Compound 12a]
solubility at 2 h, µM: 37

molecule: CNC(=O)CNc1cc(=O)[nH]c2ccc(Nc3ccnc(Cl)c3C#N)cc12 [Compound 12e]
solubility at 2 h, µM: 35

// query Please list solubility at 2 h recorded for the molecule CC(Nc1cc(=O)n(C)c2ccc(Nc3ccnc(Cl)c3C#N)cc12)c1ncco1 (centres unmarked) [Compound 13b]
// result 2.8

----------
Measured log10(solubility at 20 h) values are reported for all entries that follow.
Test: NMR solubility assay
Type: physicochemical
Settings: HEPES buffer, 5% DMSO, room temperature
Method: 3. Supplementary experimental: physicochemical assays The plate was then sealed and incubated at room temperature for 20 hours, without shaking. The plate was centrifuged again for 1 minute at […] spectrometer equipped with a 5 mm TCI-CryoProbe. […] deuterated solvent. […] All NMR data were acquired at the […] contained 16k time-domain data points. Relaxation delay was set to 20 sec. […]
In plain terms, each number is the log10 of measured solubility at 20 h in µM.

Recorded log10(solubility at 20 h), per entry:
molecule: Cc1cnc(C(C)Nc2cc(=O)n(C)c3ccc(Nc4ccnc(Cl)c4C#N)cc23)nc1 (centres unmarked) [Compound 24a]
numeric-value: 1.49
//
molecule: CC(Nc1cc(=O)n(C)c2ccc(Nc3ccnc(Cl)c3C#N)cc12)c1ncccn1 (centres unmarked) [Compound 13e]
numeric-value: 2.40
//
molecule: CC(Nc1cc(=O)n(C)c2ccc(Nc3ccnc(Cl)c3C#N)cc12)c1ncn(C)n1 (centres unmarked) [Compound 13d]
numeric-value: 2.41
//
molecule: CNC(=O)[C@@H](C)Nc1cc(=O)[nH]c2ccc(Nc3ccnc(Cl)c3C#N)cc12 [Compound 12b]
numeric-value: 1.81
//
molecule: Cn1c(=O)cc(NCC2CC2)c2cc(Nc3cc(C(=O)O)nc(Cl)c3C#N)ccc21 [Compound 11d]
numeric-value: 2.51

// query Please list log10(solubility at 20 h) recorded for the molecule C[C@@H](Nc1cc(=O)n(C)c2ccc(Nc3ccnc(Cl)c3C#N)cc12)c1ncccn1 [Compound 13f]
// result 2.10

// query Please list log10(solubility at 20 h) recorded for the molecule CCNc1cc(=O)n(C)c2ccc(Nc3cc(C(=O)O)nc(Cl)c3C#N)cc12 [Compound 11a]
// result 2.37

// query Please list log10(solubility at 20 h) recorded for the molecule Cc1nnc(C(C)Nc2cc(=O)n(C)c3ccc(Nc4ccnc(Cl)c4C#N)cc23)o1 (centres unmarked) [Compound 13c]
// result 2.39

// query Please list log10(solubility at 20 h) recorded for the molecule CC(Nc1cc(=O)n(C)c2ccc(Nc3ccnc(Cl)c3C#N)cc12)c1ncc(C2CC2)cn1 (centres unmarked) [Compound 24b]
// result 1.51

// query Please list log10(solubility at 20 h) recorded for the molecule CCCNc1cc(=O)n(C)c2ccc(Nc3cc(C(=O)O)nc(Cl)c3C#N)cc12 [Compound 11b]
// result 1.60

// query Please list log10(solubility at 20 h) recorded for the molecule CNC(=O)[C@H](C)Nc1cc(=O)[nH]c2ccc(Nc3ccnc(Cl)c3C#N)cc12 [Compound 12c]
// result 1.81

// query Please list log10(solubility at 20 h) recorded for the molecule Cn1c(=O)cc(NCCF)c2cc(Nc3cc(C(=O)O)nc(Cl)c3C#N)ccc21 [Compound 11c]
// result 1.91

// query Please list log10(solubility at 20 h) recorded for the molecule CNC(=O)C(C)Nc1cc(=O)n(C)c2ccc(Nc3ccnc(Cl)c3C#N)cc12 (centres unmarked) [Compound 13a]
// result 2.26

// query Please list log10(solubility at 20 h) recorded for the molecule Cn1c(=O)cc(NC(C)(C)c2ncccn2)c2cc(Nc3ccnc(Cl)c3C#N)ccc21 [Compound 13g]
// result 1.18

// query Please list log10(solubility at 20 h) recorded for the molecule CC(Nc1cc(=O)n(CC2CCC2)c2ccc(Nc3ccnc(Cl)c3C#N)cc12)c1ncccn1 (centres unmarked) [Compound 17b]
// result 1.51

// query Please list log10(solubility at 20 h) recorded for the molecule CC(Nc1cc(=O)n(CC2CC2)c2ccc(Nc3ccnc(Cl)c3C#N)cc12)c1ncccn1 (centres unmarked) [Compound 17a]
// result 1.86

// query Please list log10(solubility at 20 h) recorded for the molecule CNC(=O)C(Nc1cc(=O)[nH]c2ccc(Nc3ccnc(Cl)c3C#N)cc12)C1CC1 (centres unmarked) [Compound 12d]
// result 1.72
